Test system: L1210 leukemia ip in BDF1 mice, survival T/C
protocol.summary: NCI In Vivo Anticancer Drug Screen. Data for tumor model L1210 Leukemia (intraperitoneal) in B6D2F1 (BDF1) mice
protocol.conditions: endpoint: mean survival time; dose: 50.0 mg/kg/injection; schedule: Q04DX003 (ip); vehicle: saline; higher = longer survival
Toxic doses and inconclusive results are not listed.
Quick reference for T/C among some compounds

compound: C[N+](C)(C)CCCCCC[N+](C)(C)C
T/C: 97 % of control
//
compound: O=C1NC(=O)c2c(Cl)c(Cl)c(Cl)c(Cl)c21
T/C: 106 % of control
//
compound: NC(=O)C(c1ccccc1)N1CCCC1 (centres undefined)
T/C: 97 % of control
//
compound: CC(=O)NN=C(C)C
T/C: 99 % of control
//
compound: Cc1ccccc1OCC(O)CO (centres undefined)
T/C: 95 % of control
//
compound: CC(C)C1C(=O)N2CCCC2C2(O)OC(NC(=O)C3C=C4c5cccc6[nH]cc(c56)CC4N(C)C3)(C(C)C)C(=O)N12 (centres undefined)
T/C: 106 % of control
//
compound: O=C1NC(=O)C(CO)(CO)N1
T/C: 100 % of control
//
compound: CN1CCC=C(CN2c3ccccc3Sc3ccccc32)C1
T/C: 105 % of control
//
compound: COc1c(Cl)cc([N+](=O)[O-])c(OC)c1[N+](=O)[O-]
T/C: 98 % of control

* * *

Test system: L1210 leukemia ip in BDF1 mice, survival T/C
protocol.summary: NCI In Vivo Anticancer Drug Screen. Data for tumor model L1210 Leukemia (intraperitoneal) in B6D2F1 (BDF1) mice
protocol.conditions: endpoint: mean survival time; dose: 50.0 mg/kg/injection; schedule: Q01DX009 (ip); vehicle: saline with Tween-80; higher = longer survival
Inconclusive results and toxic doses are left out.

compound: IC1CCCOC1[n+]1ccccc1 (centres undefined)
T/C: 103 % of control
//
compound: C1CC2CCC(N3CCOCC3)C(C1)O2 (centres undefined)
T/C: 102 % of control
//
compound: ClC1=C(Cl)C2(Cl)CC1(Cl)C1OC12 (centres undefined)
T/C: 96 % of control
//
compound: COc1ccccc1OCC(O)COc1ccccc1OC
T/C: 94 % of control

* * *

System: L1210 leukemia ip in BDF1 mice, survival T/C
protocol.summary: NCI In Vivo Anticancer Drug Screen. Data for tumor model L1210 Leukemia (intraperitoneal) in B6D2F1 (BDF1) mice
protocol.conditions: endpoint: mean survival time; dose: 200.0 mg/kg/injection; schedule: Q04DX003 (ip); vehicle: Klucel (hydroxypropylcellulose) (HPC); higher = longer survival
Inconclusive results and toxic doses are left out.
Quick reference for T/C among some compounds
result.type: T/C

compound: CC1CCN(c2ccc([N+](=O)[O-])cc2[N+](=O)[O-])CC1
result.type: T/C
val: 98 % of control
//
compound: O=C1C(Br)=CC(Br)=C/C1=N/Br
result.type: T/C
val: 93 % of control
//
compound: O=C(O)/C=C/c1c2ccc(=O)cc-2oc2cc(O)ccc12
result.type: T/C
val: 91 % of control
//
compound: O=C(Nc1cccc(NC(=O)c2ccccc2)c1)c1ccccc1
result.type: T/C
val: 95 % of control
//
compound: O=C(Cc1ccc([N+](=O)[O-])cc1)c1ccccc1
result.type: T/C
val: 97 % of control
//
compound: O=C(NC1CCCCC1)OC/C=C\c1ccccc1
result.type: T/C
val: 96 % of control
//
compound: O=c1ccccn1C/C(=N\O)c1ccccc1
result.type: T/C
val: 98 % of control
//
compound: c1ccc2c(c1)C1c3ccccc3C2C2COCC12 (configuration not stated)
result.type: T/C
val: 100 % of control
//
compound: CC(NC(C)c1ccccc1)c1ccccc1 (configuration not stated)
result.type: T/C
val: 100 % of control
//
compound: Nc1cccc(Cl)c1
result.type: T/C
val: 90 % of control
//
compound: CC12CCC3C(CC=C4CC(SC(=N)N)CCC43C)C1CCC2=O (configuration not stated)
result.type: T/C
val: 95 % of control
//
compound: CCOC(CN=Cc1ccc(Cl)c(Cl)c1)OCC
result.type: T/C
val: 97 % of control
//
compound: CCC(CCC(C)C1CCC2C3CC=C4CC(OC5OC(CO)C(O)C(O)C5O)CCC4(C)C3CCC12C)C(C)C (configuration not stated)
result.type: T/C
val: 104 % of control
//
compound: Cc1c(C)c2c(c(C)c1O)SC(CC(=O)O)C(=O)O2 (configuration not stated)
result.type: T/C
val: 100 % of control
//
compound: NNC(=O)C(Sc1ccccc1)c1ccccc1 (configuration not stated)
result.type: T/C
val: 98 % of control
//
compound: Nc1c(Br)cc([N+](=O)[O-])cc1Br
result.type: T/C
val: 95 % of control
//
compound: CC(=O)Oc1cccc(OC(C)=O)c1OC(C)=O
result.type: T/C
val: 97 % of control
//
compound: CC12C=CC(CC1)C2OC(=O)c1ccccc1C(=O)O (configuration not stated)
result.type: T/C
val: 108 % of control
//
compound: Cc1cc(C)c(F)c(Br)c1N
result.type: T/C
val: 106 % of control
//
compound: Cc1cc(N(CCOS(C)(=O)=O)CCOS(C)(=O)=O)ccc1C=Nc1ccc(-c2csc(-c3ccc(Br)cc3)n2)cc1
result.type: T/C
val: 91 % of control
//
compound: CCCCCCNS(=O)(=O)c1ccc([N+](=O)[O-])cc1
result.type: T/C
val: 100 % of control
//
compound: C#CCN(C)/N=N/c1nc[nH]c1C(N)=O
result.type: T/C
val: 108 % of control
//
compound: CCCCOP(=O)(OCCCC)C(c1ccccc1)(c1ccccc1)c1ccccc1
result.type: T/C
val: 94 % of control
//
compound: COc1ccc2c(c1)CCc1cnoc1-2
result.type: T/C
val: 95 % of control
//
compound: CCOC(=O)c1c(C)[nH]c2ccc(O)cc12
result.type: T/C
val: 100 % of control
//
compound: CC(C)OC(=O)Nc1ccc(-c2ccc(NC(=O)OC(C)C)cc2)cc1
result.type: T/C
val: 91 % of control
//
compound: COc1ccc(C(=O)/C=C/c2ccc3c(c2)OCO3)cc1
result.type: T/C
val: 94 % of control
//
compound: Nc1ccccc1Sc1ccc(C(=O)O)cc1[N+](=O)[O-]
result.type: T/C
val: 96 % of control
//
compound: O=C(Oc1ccccc1)c1ccccc1Cl
result.type: T/C
val: 96 % of control
//
compound: O=C(C(=O)c1ccc([N+](=O)[O-])cc1)c1ccccc1
result.type: T/C
val: 100 % of control
//
compound: CC(=O)c1ccc(OS(=O)(=O)c2ccc([N+](=O)[O-])cc2)cc1
result.type: T/C
val: 94 % of control
//
compound: Cc1ccc(C(=O)Nc2ccc3c(c2)Cc2ccccc2-3)cc1
result.type: T/C
val: 94 % of control
//
compound: Cc1ccc(N2SC(Cl)(Cl)N(c3ccc(C)cc3)SC2(Cl)Cl)cc1
result.type: T/C
val: 90 % of control
//
compound: Cc1ccc(NC(=O)Nc2cccc(O)c2)c([N+](=O)[O-])c1
result.type: T/C
val: 106 % of control
//
compound: CCOC(=O)NCCBr
result.type: T/C
val: 106 % of control
//
compound: COc1ccccc1NC(=O)Nc1ccc(F)cc1
result.type: T/C
val: 92 % of control
//
compound: COc1ccc(N=C(C(=Nc2ccc(OC)cc2)c2ccccc2)c2ccccc2)cc1
result.type: T/C
val: 95 % of control
